- system: AICARFTase (Homo sapiens)
- Sequence (P31939 whole entry): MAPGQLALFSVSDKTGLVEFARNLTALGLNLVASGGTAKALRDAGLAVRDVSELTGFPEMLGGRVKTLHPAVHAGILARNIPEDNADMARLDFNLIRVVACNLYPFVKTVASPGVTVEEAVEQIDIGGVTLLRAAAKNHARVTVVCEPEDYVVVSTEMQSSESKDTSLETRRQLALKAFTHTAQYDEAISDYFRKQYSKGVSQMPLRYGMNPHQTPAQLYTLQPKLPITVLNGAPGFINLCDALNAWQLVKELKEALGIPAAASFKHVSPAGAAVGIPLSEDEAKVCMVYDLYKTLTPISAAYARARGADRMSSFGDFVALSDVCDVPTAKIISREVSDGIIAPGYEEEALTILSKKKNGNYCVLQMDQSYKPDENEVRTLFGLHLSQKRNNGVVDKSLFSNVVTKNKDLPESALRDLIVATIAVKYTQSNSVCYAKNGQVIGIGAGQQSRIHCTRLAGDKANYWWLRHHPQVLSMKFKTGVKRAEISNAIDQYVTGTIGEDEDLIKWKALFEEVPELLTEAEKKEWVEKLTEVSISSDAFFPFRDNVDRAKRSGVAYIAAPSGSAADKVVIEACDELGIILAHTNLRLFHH
- measurement.protocol: Inhibition of AICARFTase
- Type: biochemical
reported.property: IC50

Query Nc1nc2c(c(=O)[nH]1)CC(CCc1ccc(C(=O)N[C@@H](CCC(=O)O)C(=O)O)cc1)CN2 (stereo partly shown) [DDATHF, 5,10-dideazatetrahydrofolic acid, reference compound] yields IC50 of > 500 µM
